target: UniProtKB Q9UPY3; test: Inhibition of human recombinant Dicer-mediated pre-miR-29a processing assessed as reduction of mature miR-29a formation at 200 uM after 3 hrs by Northern blot analysis
Sequence (Q9UPY3 whole entry): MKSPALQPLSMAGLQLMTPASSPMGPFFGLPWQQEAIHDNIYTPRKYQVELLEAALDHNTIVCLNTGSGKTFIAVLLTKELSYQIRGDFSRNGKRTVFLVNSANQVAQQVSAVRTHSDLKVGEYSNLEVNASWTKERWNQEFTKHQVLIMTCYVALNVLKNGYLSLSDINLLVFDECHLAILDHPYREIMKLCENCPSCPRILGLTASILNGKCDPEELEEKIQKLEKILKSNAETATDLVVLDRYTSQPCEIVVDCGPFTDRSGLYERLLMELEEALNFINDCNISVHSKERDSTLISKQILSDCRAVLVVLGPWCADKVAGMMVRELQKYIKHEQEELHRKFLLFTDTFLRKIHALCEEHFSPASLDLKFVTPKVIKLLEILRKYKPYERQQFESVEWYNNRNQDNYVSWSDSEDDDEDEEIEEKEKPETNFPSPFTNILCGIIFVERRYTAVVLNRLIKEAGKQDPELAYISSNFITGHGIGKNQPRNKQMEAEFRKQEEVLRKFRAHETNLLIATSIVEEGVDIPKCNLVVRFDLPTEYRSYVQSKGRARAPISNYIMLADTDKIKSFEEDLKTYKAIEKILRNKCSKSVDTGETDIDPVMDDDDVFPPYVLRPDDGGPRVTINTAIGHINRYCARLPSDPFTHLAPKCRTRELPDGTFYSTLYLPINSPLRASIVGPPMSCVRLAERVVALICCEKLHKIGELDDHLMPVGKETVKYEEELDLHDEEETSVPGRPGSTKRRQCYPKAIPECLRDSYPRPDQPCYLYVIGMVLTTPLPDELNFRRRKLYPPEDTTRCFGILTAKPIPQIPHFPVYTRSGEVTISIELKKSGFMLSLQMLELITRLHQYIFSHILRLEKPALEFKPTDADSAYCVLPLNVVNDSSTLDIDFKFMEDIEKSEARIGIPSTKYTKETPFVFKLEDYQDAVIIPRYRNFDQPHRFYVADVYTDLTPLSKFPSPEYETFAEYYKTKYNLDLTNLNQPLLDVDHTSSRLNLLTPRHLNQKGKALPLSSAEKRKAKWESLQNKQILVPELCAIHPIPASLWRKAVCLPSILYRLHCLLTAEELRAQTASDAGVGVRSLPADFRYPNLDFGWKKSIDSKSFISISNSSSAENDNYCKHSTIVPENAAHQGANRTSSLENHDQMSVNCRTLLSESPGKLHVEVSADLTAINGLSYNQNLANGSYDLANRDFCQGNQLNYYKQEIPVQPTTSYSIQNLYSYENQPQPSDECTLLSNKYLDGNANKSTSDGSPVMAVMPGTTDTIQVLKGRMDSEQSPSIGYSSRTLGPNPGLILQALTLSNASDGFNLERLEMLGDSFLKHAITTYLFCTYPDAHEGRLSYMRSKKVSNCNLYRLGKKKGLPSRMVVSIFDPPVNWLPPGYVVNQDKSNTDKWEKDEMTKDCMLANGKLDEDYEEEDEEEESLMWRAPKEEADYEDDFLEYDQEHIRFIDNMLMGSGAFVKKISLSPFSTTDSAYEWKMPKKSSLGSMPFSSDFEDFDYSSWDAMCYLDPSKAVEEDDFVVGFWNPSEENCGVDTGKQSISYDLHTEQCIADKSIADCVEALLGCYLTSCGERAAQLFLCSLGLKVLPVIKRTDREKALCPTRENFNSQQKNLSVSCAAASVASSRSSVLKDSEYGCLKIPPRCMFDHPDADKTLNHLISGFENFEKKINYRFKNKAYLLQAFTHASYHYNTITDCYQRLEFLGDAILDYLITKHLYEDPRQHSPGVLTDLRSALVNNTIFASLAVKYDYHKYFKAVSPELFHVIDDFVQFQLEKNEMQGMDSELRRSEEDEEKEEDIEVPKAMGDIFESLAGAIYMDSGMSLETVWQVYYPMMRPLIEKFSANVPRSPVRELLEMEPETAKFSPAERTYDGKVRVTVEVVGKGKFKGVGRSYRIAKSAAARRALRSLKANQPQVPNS
Active and inactive are the calls of the source. The rule behind the calls is not given here.
Classes used: active, inactive

                                   compound  qualitative_label
0  CN(C)CCOc1ccc2oc3ccc(OCCN(C)C)cc3c(=O)c2c1           inactive
1  CN(C)CCOc1ccc2sc3ccc(OCCN(C)C)cc3c(=O)c2c1           inactive
2        NCCOc1ccc2oc3ccc(OCCN)cc3c(=O)c2c1             active
3        NCCOc1ccc2sc3ccc(OCCN)cc3c(=O)c2c1             active
4  NCCCCCCOc1ccc2oc3ccc(OCCCCCCN)cc3c(=O)c2c1           inactive
5  CC(CN)Oc1ccc2oc3ccc(OC(C)CN)cc3c(=O)c2c1 (stereo unspecified)           inactive
